species on record: Rattus norvegicus; test: Compound was tested for the inhibition of spinal reflex evoked by electrical stimulation of the dorsal root of new born rat
pIC50: −log10 of the molar value.

[
  {
    "Mol": "N[C@H](C(=O)O)[C@H]1C[C@@H]1C(=O)O",
    "pIC50": 6.15
  }
]

###

assay: pKa value by 1H NMR titration experiments; pK1; type: physicochemical

[
  {
    "Compound": "N[C@H](C(=O)O)[C@H]1C[C@H]1C(=O)O",
    "pKa": 2.1
  },
  {
    "Compound": "N[C@H](C(=O)O)[C@H]1C[C@@H]1C(=O)O",
    "pKa": 1.9
  },
  {
    "Compound": "COC[C@H]1[C@H](C(=O)O)[C@@H]1[C@H](N)C(=O)O",
    "pKa": 2.2
  },
  {
    "Compound": "N[C@H](C(=O)O)[C@@H]1C[C@@H]1C(=O)O",
    "pKa": 2.5
  },
  {
    "Compound": "COC[C@H]1[C@H](C(=O)O)[C@H]1[C@H](N)C(=O)O",
    "pKa": 2.3
  },
  {
    "Compound": "COC[C@@H]1[C@H](C(=O)O)[C@@H]1[C@H](N)C(=O)O",
    "pKa": 2
  },
  {
    "Compound": "C=C(C)[C@H]1CN[C@H](C(=O)O)[C@H]1CC(=O)O",
    "pKa": 2.1
  },
  {
    "Compound": "N[C@H](C(=O)O)[C@@H]1C[C@H]1C(=O)O",
    "pKa": 2.2
  },
  {
    "Compound": "COC[C@@H]1[C@H](C(=O)O)[C@H]1[C@H](N)C(=O)O",
    "pKa": 2.1
  },
  {
    "Compound": "Cc1onc(O)c1CC(N)C(=O)O [(R,S)-AMPA]",
    "pKa": 2.1
  }
]

###

test: pKa value by 1H NMR titration experiments; pK3; assay type: physicochemical

[
  {
    "Compound": "N[C@H](C(=O)O)[C@@H]1C[C@H]1C(=O)O",
    "pKa": 9.5
  },
  {
    "Compound": "COC[C@@H]1[C@H](C(=O)O)[C@@H]1[C@H](N)C(=O)O",
    "pKa": 10.1
  },
  {
    "Compound": "Cc1onc(O)c1CC(N)C(=O)O [(R,S)-AMPA]",
    "pKa": 10.1
  },
  {
    "Compound": "N[C@H](C(=O)O)[C@@H]1C[C@@H]1C(=O)O",
    "pKa": 10
  },
  {
    "Compound": "N[C@@H](CCC(=O)O)C(=O)O [GLUTAMIC ACID]",
    "pKa": 9.7
  },
  {
    "Compound": "C=C(C)[C@H]1CN[C@H](C(=O)O)[C@H]1CC(=O)O [KAINIC ACID]",
    "pKa": 10.1
  },
  {
    "Compound": "COC[C@H]1[C@H](C(=O)O)[C@H]1[C@H](N)C(=O)O",
    "pKa": 10.2
  },
  {
    "Compound": "N[C@H](C(=O)O)[C@H]1C[C@H]1C(=O)O",
    "pKa": 10
  },
  {
    "Compound": "COC[C@H]1[C@H](C(=O)O)[C@@H]1[C@H](N)C(=O)O",
    "pKa": 9.6
  },
  {
    "Compound": "N[C@H](C(=O)O)[C@H]1C[C@@H]1C(=O)O",
    "pKa": 9.7
  },
  {
    "Compound": "COC[C@@H]1[C@H](C(=O)O)[C@H]1[C@H](N)C(=O)O",
    "pKa": 9.7
  }
]

Provenance of the data: ChEMBL document CHEMBL1129658
